Origin of measurements: paper PMC4537050

- Tested On: T1, FGF16 (UniProt O43320 1-207)
- T1 construct: fibroblast growth factor 16 (FGF16)
- Experiment Summary: SPR; BIAcore X-100; FGF8b (20 μg/ml in 10 mM sodium acetate, pH 6.0) or other FGFs (10 mM sodium acetate at optimal pH) immobilised on a CM5 sensor chip by EDC/NHS; peptide injected (ARPCA 8 μM to 2000 μM), 4 min at 30 μl/min, 10 min dissociation, in HBS; equilibrium values fitted with the Langmuir equation for monovalent binding
- Protocol Conditions: both partners purified
Parameter: pKd
Here pKd is given on a logarithmic scale as minus log10 of the concentration in mol/L.

IN: pKd lookup needed for Ac-ARPCA-NH2 (long pentraxin-3 (PTX3), residues 100-104 of the N-terminal extension; source: synthetic peptide, provided by R. Longhi and A. Gori (CNR, Milano, Italy)) [Ac-ARPCA-NH2, acetylated pentapeptide corresponding to PTX3(100-104)] , thanks.
OUT: 3.95
